# Test system: LXRa:RXRa (NR concentration 270 nM, RXRa partner concentration 90 nM)
# ASSAY: PBM binding z-score (relative to random genomic background probes); higher = stronger binding; sequences stand for … in GC…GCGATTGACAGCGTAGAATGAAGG
Classify as follows. Reported PBM binding z-score greater than or equal to 0.9: Yes. Reported PBM binding z-score below: No.

# count of solved cases: 2
PBM binding z-score >= 0.9 for `CCTAGCAGGCCAATCTGAGTCACTCAAGGCTTGA` ?
No

Reported PBM binding z-score at or above 0.9? `CAAATTAGGTCAAGAGGTCAAAGTCCGCTTCCCG`
Yes

---
Could you verify whether the entry `GCTAGTTGGTCAGTAATAGGTCACACACCGGTCG` shows PBM binding z-score of no less than 0.9?
Yes

API: above_or_equal(metric=PBM binding z-score, cutoff=0.9) for item `AGTCAAAGCTCACTAGGTAACGTAAGATTCAGCT`
No
